test system: Streptococcus pneumoniae; test: Antibacterial activity against erythromycin-resistant Streptococcus pneumoniae AB11 expressing erm and mef genes by broth microdilution method; assay type: functional
reported_property: log10(MIC) (log10 of the value in µg/mL)

INSERT INTO assay_data (given_smiles, system_name, numeric_readout) VALUES
  ('CC[C@H]1OC(=O)[C@H](C)[C@@H](O[C@H]2C[C@@](C)(OC)[C@@H](OC(=O)NCc3ccc(F)cc3)[C@H](C)O2)[C@H](C)[C@@H](O[C@@H]2O[C@H](C)C[C@H](N(C)C)[C@H]2O)[C@](C)(O)C[C@@H](C)CN(C)[C@H](C)[C@@H](OC(=O)NCCc2ccccc2)[C@]1(C)O', 'Streptococcus pneumoniae', 1.51),
  ('CCCCCNC(=O)O[C@@H]1[C@@H](C)N(C)C[C@H](C)C[C@@](C)(O)[C@H](O[C@@H]2O[C@H](C)C[C@H](N(C)C)[C@H]2O)[C@@H](C)[C@H](O[C@H]2C[C@@](C)(OC)[C@@H](OC(=O)NCc3ccc(OC)cc3)[C@H](C)O2)[C@@H](C)C(=O)O[C@H](CC)[C@@]1(C)O', 'Streptococcus pneumoniae', 1.51),
  ('CC[C@H]1OC(=O)[C@H](C)[C@@H](O[C@H]2C[C@@](C)(OC)[C@@H](OC(=O)NCCc3ccc(O)cc3)[C@H](C)O2)[C@H](C)[C@@H](O[C@@H]2O[C@H](C)C[C@H](N(C)C)[C@H]2O)[C@](C)(O)C[C@@H](C)CN(C)[C@H](C)[C@@H](OC(=O)NCCc2ccccc2Cl)[C@]1(C)O', 'Streptococcus pneumoniae', 1.20),
  ('CC[C@H]1OC(=O)[C@H](C)[C@@H](O[C@H]2C[C@@](C)(OC)[C@@H](OC(=O)NCCc3ccccc3Cl)[C@H](C)O2)[C@H](C)[C@@H](O[C@@H]2O[C@H](C)C[C@H](N(C)C)[C@H]2O)[C@](C)(O)C[C@@H](C)CN(C)[C@H](C)[C@H]2OC(=O)O[C@@]21C', 'Streptococcus pneumoniae', 0.30),
  ('CC[C@H]1OC(=O)[C@H](C)[C@@H](O[C@H]2C[C@@](C)(OC)[C@@H](OC(=O)NCCc3ccccc3Cl)[C@H](C)O2)[C@H](C)[C@@H](O[C@@H]2O[C@H](C)C[C@H](N(C)C)[C@H]2O)[C@](C)(O)C[C@@H](C)CN(C)[C@H](C)[C@@H](OC(=O)NCc2ccccc2)[C@]1(C)O', 'Streptococcus pneumoniae', 0.60),
  ('CC[C@H]1OC(=O)[C@H](C)[C@@H](O[C@H]2C[C@@](C)(OC)[C@@H](OC(=O)NCCc3ccccc3Cl)[C@H](C)O2)[C@H](C)[C@@H](O[C@@H]2O[C@H](C)C[C@H](N(C)C)[C@H]2O)[C@](C)(O)C[C@@H](C)CN(C)[C@H](C)[C@@H](OC(=O)NCc2ccc(F)cc2)[C@]1(C)O', 'Streptococcus pneumoniae', 0.60),
  ('CC[C@H]1OC(=O)[C@H](C)[C@@H](O[C@H]2C[C@@](C)(OC)[C@@H](OC(=O)NCCc3ccc(O)cc3)[C@H](C)O2)[C@H](C)[C@@H](O[C@@H]2O[C@H](C)C[C@H](N(C)C)[C@H]2O)[C@](C)(O)C[C@@H](C)CN(C)[C@H](C)[C@H]2OC(=O)O[C@@]21C', 'Streptococcus pneumoniae', 0.60),
  ('CCCCNC(=O)O[C@@H]1[C@@H](C)N(C)C[C@H](C)C[C@@](C)(O)[C@H](O[C@@H]2O[C@H](C)C[C@H](N(C)C)[C@H]2O)[C@@H](C)[C@H](O[C@H]2C[C@@](C)(OC)[C@@H](OC(=O)NCc3ccc(OC)cc3)[C@H](C)O2)[C@@H](C)C(=O)O[C@H](CC)[C@@]1(C)O', 'Streptococcus pneumoniae', 2.11),
  ('CC[C@H]1OC(=O)[C@H](C)[C@@H](O[C@H]2C[C@@](C)(OC)[C@@H](OC(=O)NCc3ccc(F)cc3)[C@H](C)O2)[C@H](C)[C@@H](O[C@@H]2O[C@H](C)C[C@H](N(C)C)[C@H]2O)[C@](C)(O)C[C@@H](C)CN(C)[C@H](C)[C@@H](OC(=O)NCCc2ccccc2Cl)[C@]1(C)O', 'Streptococcus pneumoniae', 0.30),
  ('CC[C@H]1OC(=O)[C@H](C)[C@@H](O[C@H]2C[C@@](C)(OC)[C@@H](O)[C@H](C)O2)[C@H](C)[C@@H](O[C@@H]2O[C@H](C)C[C@H](N(C)C)[C@H]2O)[C@](C)(OC)C[C@@H](C)C(=O)[C@H](C)[C@@H](O)[C@]1(C)O', 'Streptococcus pneumoniae', 2.11),
  ('CC[C@H]1OC(=O)[C@H](C)[C@@H](O[C@H]2C[C@@](C)(OC)[C@@H](OC(=O)NCCc3ccccc3Cl)[C@H](C)O2)[C@H](C)[C@@H](O[C@@H]2O[C@H](C)C[C@H](N(C)C)[C@H]2O)[C@](C)(O)C[C@@H](C)CN(C)[C@H](C)[C@@H](OC(=O)NCCc2ccc(O)cc2)[C@]1(C)O', 'Streptococcus pneumoniae', 1.20),
  ('CCCCCNC(=O)O[C@@H]1[C@@H](C)N(C)C[C@H](C)C[C@@](C)(O)[C@H](O[C@@H]2O[C@H](C)C[C@H](N(C)C)[C@H]2O)[C@@H](C)[C@H](O[C@H]2C[C@@](C)(OC)[C@@H](OC(=O)NCCc3ccccc3Cl)[C@H](C)O2)[C@@H](C)C(=O)O[C@H](CC)[C@@]1(C)O', 'Streptococcus pneumoniae', 1.20),
  ('CC[C@H]1OC(=O)[C@H](C)[C@@H](O[C@H]2C[C@@](C)(OC)[C@@H](OC(=O)NCc3ccc(OC)cc3)[C@H](C)O2)[C@H](C)[C@@H](O[C@@H]2O[C@H](C)C[C@H](N(C)C)[C@H]2O)[C@](C)(O)C[C@@H](C)CN(C)[C@H](C)[C@H]2OC(=O)O[C@@]21C', 'Streptococcus pneumoniae', 1.20);
